Conditions: pH 2.7
Marks after values point to notes of the source that are not given here.
measurement.kind: Log P

Reported Log P for CCCCCC(CC)OC(=O)CC(=O)N1CCC(c2nc(C3=NOC(c4c(F)cccc4OS(C)(=O)=O)C3)cs2)CC1 (stereo not drawn) : what is it? 4.03^[a]

Looking for the measured Log P of C#CCOc1ccccc1C1CC(c2csc(C3CCN(C(=O)C(C(=O)OC(C)(C)C)n4nc(C(F)F)cc4C(F)F)CC3)n2)=NO1 (stereo not drawn) , can you help? 4.16^[a]

Log P for C#CCOc1cccc(Cl)c1C1CC(c2csc(C3CCN(C(=O)C(Br)C(=O)OC(C)(C)C)CC3)n2)=NO1 (stereo not drawn) ? 3.84^[a]

If you can, please state the reported Log P value of C#CCOc1ccccc1C1CC(c2csc(C3CCN(C(=O)CC(=O)OC(C)C)CC3)n2)=NO1 (stereo not drawn) . 2.94^[a]

Given CCCCCC(CC)OC(=O)C(C(=O)N1CCC(c2nc(C3=NOC(c4ccccc4OS(C)(=O)=O)C3)cs2)CC1)n1nc(C(F)F)cc1C(F)F (stereo not drawn) , state its recorded Log P. 4.96^[a]

What does the data say about its Log P? Entry: CCOC(=O)C(C(=O)N1CCC(c2nc(C3=NOC(c4c(Cl)cccc4OS(C)(=O)=O)C3)cs2)CC1)n1nc(C(F)F)cc1C(F)F (stereo not drawn) 3.50^[a]
